Molecular target: Taq DNA polymerase (UniProt P19821 P19821:1-832)
Sequence (P19821 whole entry, one chain of several): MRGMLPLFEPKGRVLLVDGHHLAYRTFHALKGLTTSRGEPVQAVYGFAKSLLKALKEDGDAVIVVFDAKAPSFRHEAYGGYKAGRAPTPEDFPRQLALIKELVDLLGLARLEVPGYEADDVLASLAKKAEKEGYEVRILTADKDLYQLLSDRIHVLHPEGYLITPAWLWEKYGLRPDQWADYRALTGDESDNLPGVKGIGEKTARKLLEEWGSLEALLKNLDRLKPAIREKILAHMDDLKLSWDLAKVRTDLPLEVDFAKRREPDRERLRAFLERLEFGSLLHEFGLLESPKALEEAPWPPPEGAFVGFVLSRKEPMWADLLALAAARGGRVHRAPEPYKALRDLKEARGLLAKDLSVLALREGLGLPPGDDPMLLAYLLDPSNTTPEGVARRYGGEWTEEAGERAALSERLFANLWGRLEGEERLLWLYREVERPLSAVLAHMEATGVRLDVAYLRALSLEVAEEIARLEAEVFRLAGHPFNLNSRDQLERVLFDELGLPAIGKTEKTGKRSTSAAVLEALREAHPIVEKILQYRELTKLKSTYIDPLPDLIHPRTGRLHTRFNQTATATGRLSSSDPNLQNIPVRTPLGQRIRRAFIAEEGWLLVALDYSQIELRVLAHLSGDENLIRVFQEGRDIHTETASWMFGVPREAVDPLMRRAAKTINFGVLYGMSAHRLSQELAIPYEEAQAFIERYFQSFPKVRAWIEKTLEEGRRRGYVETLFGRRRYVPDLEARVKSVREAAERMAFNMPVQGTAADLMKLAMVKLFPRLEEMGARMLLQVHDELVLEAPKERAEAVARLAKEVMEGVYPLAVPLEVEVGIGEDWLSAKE
Test: inhibition; room temperature 16 h, 12.5 nM Taq; 22 nM at 30 C 1 h; IT50 41 C
Conditions: tags: rTaq, 94 kDa, Roche Molecular Systems / Perkin Elmer
pIC50: −log10 of the molar value.
PARAMETER MEASURED: pIC50

1) TQ30 (ssDNA) DNA: TTCTCGGTTGGTCTCTGGCGGAGCAAGACCAGACAATGTACAGTATTGGCCTGATCTTGTGTATGATTCGCTTTTCCC	8.19
